The following compounds are listed with their measured z-score values.
Target: NADPH oxidase 2 (Homo sapiens) (UniProt P04839)
Sequence (P04839 whole entry, looked up): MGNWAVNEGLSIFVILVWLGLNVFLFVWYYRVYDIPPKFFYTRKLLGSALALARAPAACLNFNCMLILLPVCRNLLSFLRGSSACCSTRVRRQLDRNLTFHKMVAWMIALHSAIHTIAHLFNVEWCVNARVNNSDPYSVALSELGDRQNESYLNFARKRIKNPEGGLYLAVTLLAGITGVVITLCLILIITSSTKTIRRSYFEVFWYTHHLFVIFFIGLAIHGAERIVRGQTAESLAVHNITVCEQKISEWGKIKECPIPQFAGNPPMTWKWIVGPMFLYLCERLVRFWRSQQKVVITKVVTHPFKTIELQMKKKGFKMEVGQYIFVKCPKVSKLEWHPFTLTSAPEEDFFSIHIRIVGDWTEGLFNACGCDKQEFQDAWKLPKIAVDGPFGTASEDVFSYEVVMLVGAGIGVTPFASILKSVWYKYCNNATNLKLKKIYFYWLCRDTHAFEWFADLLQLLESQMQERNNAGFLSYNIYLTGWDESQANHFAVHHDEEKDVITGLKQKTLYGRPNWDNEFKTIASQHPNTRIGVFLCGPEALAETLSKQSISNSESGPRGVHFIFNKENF
Assay: NOX2-dependent H2O2 signal modulators, primary screen, NOX inhibitor project, cell-based, HEK293-NOX2, PMA-stimulated, Amplex Red fluorescence (AID 1159); also: test concentration not given here
Conditions: 45 min, higher = more signal, called active from +8 up or from −8 down

COMPOUND	z-score
Cc1ccc(S(=O)(=O)OC[C@H]2CN3[C@H](c4ccc(Br)cc4)[C@@H](C)CC[C@H]3C(=O)O2)cc1	0.407
CC(=O)OC[C@H]1O[C@H](CCON=C2[C@H]3CCn4c(=O)n(-c5ccccc5)c(=O)n4[C@H]3[C@H](O)[C@@H]3O[C@H]23)C=C[C@@H]1OC(C)=O	-0.564
COC(=O)C1=C(C)N(Cc2ccccc2)[C@]23O[C@](C(=O)OC)(C(=O)N2[C@@H]1c1ccccc1)C(C(=O)OC)=C3C(=O)OC	0.826
C[C@H]1CC[C@H]2C(=O)OC(CO)CN2[C@@H]1c1ccc(Br)cc1 (stereo not given in full)	0.923
COCOc1ccc(Br)cc1C(=O)[C@@H]1O[C@H]1c1cccc(OC)c1	1
C[C@H]1CC[C@H]2C(=O)O[C@H](COc3ccc(C(C)(C)C)cc3)CN2[C@@H]1c1ccc(Br)cc1	0.215
CO[C@H]1COC(=O)CCC[C@@H](C)[C@H](OC)COC(=O)[C@@H](C)NC(=O)CC=C[C@@H]1C	-1.18
CCN1C(=O)[C@@H]2[C@H]3C(=CC[C@@H]2C1=O)C1(OCCCO1)[C@H]1O[C@H]1[C@H]3O	0.104
O=C1CCCC(C2=CCCCC2=O)C1 (stereo not given)	-0.7
C[n+]1ccc(-c2ccc(CO)cc2)cc1	-0.225
C[C@H]1Cc2c(COc3ccccc3)nc3c(c2CO1)CN(CCOc1ccccc1)CC3	0.539
O=C1CCCC=C1C(CCc1ccccc1)OC(=O)c1ccc(Br)cc1 (stereo not given)	1.36
CC(=O)OC[C@H]1O[C@@H](ON=C(C)CCN2CCCc3nc(C)c(C)cc32)[C@H](OC(C)=O)[C@@H](OC(C)=O)[C@@H]1OC(C)=O	0.502
COC(=O)[C@@H]1CC[C@H](C)[C@@H](c2ccc(C)cc2)N1C(=O)c1ccc(C=NO[C@H](C)c2cn([C@H](CO)Cc3ccccc3)nn2)cc1	-0.0504
CC(CCN1CCCCc2nc(C)c(C)cc21)=NOC[C@@H](O)COCc1ccco1	-1.07
CO[C@H]1COC(=O)[C@@H](C)COC(=O)[C@@H](OCc2ccccc2)C=C[C@@H]1C	0.237
COC(=O)CC=C[C@@H](C)[C@@H](C=NO[C@@H](C)c1cc(-c2c(C)cc(C)cc2C)no1)NS(=O)(=O)c1ccc(C)cc1	-0.868
O=C1CCCC=C1C(O)CCOC(c1ccccc1)(c1ccccc1)c1ccccc1 (stereo not given)	1.69
CC(=O)OC[C@H]1OC(ON=CC[C@@H]2C=C[C@H](OC(C)=O)[C@@H](COC(C)=O)O2)[C@H](OC(C)=O)[C@@H](OC(C)=O)[C@@H]1OC(C)=O (stereo not given in full)	0.00176
COC(=O)[C@H](C)NC(=O)CCC1CC(OC(=O)NCc2cccc3ccccc23)CC2(CCCC(COC(=O)NCC(c3ccccc3)c3ccccc3)O2)O1 (stereo not given in full)	-0.121
COc1ccc(O[C@H]2C=C[C@@H](c3ccccc3)O[C@@H]2COC(=O)CCC(C)=NOC(C)CN2CCCc3nc(C)c(C)cc32)cc1 (stereo not given in full)	-2.38
C[C@@H]1C=CCC(=O)OC[C@H]2O[C@@H](C=C[C@@H]2O)[C@H](C)C=CCC(=O)OC1	-0.601
O=C1[C@H]2[C@H]3[C@H](O)[C@H](O)CC(=NOC[C@@H](O)COCc4ccco4)[C@H]3CC[C@H]2C(=O)N1c1ccc(F)cc1F	-0.249
COC(=O)CC=C[C@@H](C)[C@H](OCc1cccc(-c2ccccc2)c1)C1CCCCC1	-0.491
CC(=O)OC[C@H]1O[C@H](CC=NO[C@H](C)c2cn([C@H](CO)Cc3ccccc3)nn2)C=C[C@@H]1OC(C)=O	-0.0815

* * *

Assay: cell viability in Huh7 cells, primary screen, cytotoxicity control for HCV replication inhibitor project, CellTiter-Glo luminescence, basal, 48 h (AID 1143);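 also: Huh7 hepatoma cells carrying a hepatitis C replication reporter with no stimulus; test concentration not given here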
Conditions: Huh7 HCV replicon, higher = more signal, called active from +8 up or from −8 down
// map z-score onto a label; ranges range 1 = under -2, range 2 = from -2 up to -0.5, range 3 = -0.5 and over

COMPOUND	DISCRETE LABEL
CO[C@H]1COC(=O)CC=C[C@H](C)COC(=O)[C@@H](C)NC(=O)CC=C[C@@H]1C	range 1
CC(C)=CCCC(C)=CCON=C1C[C@@H](O)[C@@H](O)[C@@H]2[C@@H]3C(=O)N(Cc4ccccc4)C(=O)[C@@H]3CC[C@H]12	range 1
COC(=O)[C@@H]1CC[C@H](C)[C@@H](c2ccc(C)cc2)N1C(=O)c1ccc(C=NO[C@H](C)c2cn([C@H](CO)Cc3ccccc3)nn2)cc1	range 2
CCOC(=O)[C@H](CC(C)C)NC(=O)CCC1CC(OC(=O)NCCc2ccc(F)cc2)CC2(CCCC(COC(=O)NCCc3ccccc3OC)O2)O1 (stereo partly specified)	range 3
COC(=O)CC=C[C@@H](C)[C@@H](C=NO[C@H](C)c1cn([C@H](CO)Cc2ccccc2)nn1)NS(=O)(=O)c1ccc(C)cc1	range 2
CO[C@H]1COC(=O)CC=C[C@@H](C)[C@H](OC)COC(=O)[C@@H]2CCCN2C(=O)CC=C[C@@H]1C	range 3
O=C1[C@H]2[C@H]3[C@H](O)[C@H](O)CC(=NOCc4ccccc4)[C@@H]3CC[C@H]2C(=O)N1C[C@@H]1CCCO1	range 3
CC(=O)OC[C@H]1O[C@H](CCON=C2[C@H]3CCn4c(=O)n(-c5ccccc5)c(=O)n4[C@H]3[C@H](O)[C@@H]3O[C@H]23)C=C[C@@H]1OC(C)=O	range 2
COC(=O)[C@@H]1CC[C@H](C)[C@@H](c2ccc(C)cc2)N1C(=O)c1ccc(C=NO[C@H](C)c2cn([C@@H]3COC[C@H]3O)nn2)cc1	range 3
COc1ccc(O[C@H]2C=C[C@@H](c3ccccc3)O[C@@H]2CON=CC[C@@H]2C=C[C@H](OC(C)=O)[C@@H](COC(C)=O)O2)cc1	range 2
COC(=O)[C@H](C)NC(=O)CCC1CC(OC(=O)NCc2ccc3c(c2)OCO3)CC2(CCCC(COC(=O)NCC(c3ccccc3)c3ccccc3)O2)O1 (stereo partly specified)	range 1

* * *

Assay: A549 cell viability effects, profiling panel, calcein-AM fluorescence, 48 h, basal (AID 1162); also: test concentration not given here
Details: higher = more signal
QUANTITY: z-score

COMPOUND	QUANTITY	READOUT VALUE
CCOC(=O)C1=NO[C@]2(C=C(Br)C3(OCCCO3)[C@H]3O[C@H]32)C1	z-score	-0.718
C#CCCCON=C1C[C@@H](O)[C@@H](O)[C@@H]2[C@@H]3C(=O)N(C(C)(C)C)C(=O)[C@@H]3CC[C@H]12	z-score	0.053
CCc1cc2c(nc1CC)CCN(CCC(C)=NO[C@@H](C)c1cn([C@H](CO)Cc3ccccc3)nn1)C2	z-score	0.669
CCOC(=O)[C@H](Cc1ccccc1)NC(=O)CCC1CC(OC(=O)NCCc2ccc(F)cc2)CC2(CCCC(COC(=O)NCC3CCCCC3)O2)O1 (some centres undefined)	z-score	1.35
CC(CCN1CCCCc2nc(C)c(C)cc21)=NOC[C@@H](O)COCc1ccco1	z-score	0.224
COC(=O)CC=C[C@@H](C)[C@@H](C=NO[C@@H](C)c1cn([C@H](CO)Cc2ccccc2)nn1)NS(=O)(=O)c1ccc(C)cc1	z-score	0.788
CCOC(=O)[C@H](Cc1ccccc1)NC(=O)CCC1CC(OC(=O)NCc2cccc3ccccc23)CC2(CCCC(COC(=O)NCc3cccc(C(F)(F)F)c3)O2)O1 (some centres undefined)	z-score	1.84
CC(CCC(=O)OC[C@H]1O[C@H](C#Cc2ccccc2)C=C[C@@H]1Oc1ccc(C)cc1)=NO[C@H](C)c1cn([C@H](CO)Cc2ccccc2)nn1	z-score	0.122
CO[C@H]1COC(=O)CC=C[C@H](C)COC(=O)[C@@H](C)NC(=O)CC=C[C@@H]1C	z-score	-0.752
O=C1C[C@@H](O)[C@@H](O)[C@@H]2[C@@H]3C(=O)N(C[C@@H]4CCCO4)C(=O)[C@@H]3CC[C@@H]12	z-score	0.708
CC(C)=CCCC(C)=CCON=C1C[C@@H](O)[C@@H](O)[C@@H]2[C@@H]3C(=O)N(C(C)(C)C)C(=O)[C@@H]3CC[C@H]12	z-score	0.0088
CCOC(=O)[C@H](CC(C)C)NC(=O)CCC1CC(OC(=O)NCCc2ccc(F)cc2)CC2(CCCC(COC(=O)NCCc3ccccc3OC)O2)O1 (some centres undefined)	z-score	0.239
CCOC(=O)[C@H](CC(C)C)NC(=O)CCC1CC(OC(=O)NCc2cccc3ccccc23)CC2(CCCC(COC(=O)NCCCN3CCCC3=O)O2)O1 (some centres undefined)	z-score	0.367
O=C1[C@H]2[C@H]3[C@H](O)[C@H](O)CC(=NOCc4ccccc4)[C@@H]3CC[C@H]2C(=O)N1c1ccc(F)cc1F	z-score	0.504
C=CC[C@@H]1C=C[C@H](ON=C(C)CCC(=O)OC[C@H]2O[C@H](c3ccccc3)C=C[C@@H]2Oc2ccc(OC)cc2)[C@@H](CO)O1	z-score	1.21
CCOC(=O)[C@H](CC(C)C)NC(=O)CCC1CC(OC(=O)NCc2ccc3c(c2)OCO3)CC2(CCCC(COC(=O)NCc3cccc(C(F)(F)F)c3)O2)O1 (some centres undefined)	z-score	0.112
COC(=O)[C@H](C)NC(=O)CCC1CC(OC(=O)NCCc2ccc(F)cc2)CC2(CCCC(COC(=O)NCCC(C)C)O2)O1 (some centres undefined)	z-score	1.22
CO[C@@H]1COC(=O)CC=C[C@@H](C)[C@H](OC)COC(=O)[C@@H](C)COC(=O)CC=C[C@H]1C	z-score	0.865
Cn1c(=O)n2n(c1=O)[C@H]1[C@H](O)[C@@H]3O[C@@H]3C(=NOCc3ccccc3)[C@H]1CC2	z-score	0.102
COC(=O)C1=C(C)N(Cc2ccccc2)[C@]23O[C@](C(=O)OC)(C(=O)N2[C@@H]1c1ccccc1)C(C(=O)OC)=C3C(=O)OC	z-score	-0.321
Cc1cc2c(c(=O)o1)[C@@H](O)[C@H]1O[C@H]1C2=O	z-score	-0.223
COC(=O)CC=C[C@@H](C)[C@@H](C=NO[C@@H](C)c1cc(-c2c(C)cc(C)cc2C)no1)NS(=O)(=O)c1ccc(C)cc1	z-score	-0.985
C=CC[C@@H]1C=C[C@H](ON=C[C@@H](C)[C@H](OCc2ccccc2)C(C)C)[C@@H](CO)O1	z-score	-0.475
C[C@H]1COC(=O)[C@@H]2CCCN2C(=O)[C@@H](C)COC(=O)[C@H](Cc2ccccc2)NC1=O	z-score	-0.398
